List of %Inh values.
- System: LKB1;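 also: KINOMEscan kinase panel screen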
- Construct: gene STK11
- condition label: concentration: 1 μM, replicates: in singlicate; n = 1

| compound | target of assay | %Inh (%) |
| --- | --- | --- |
| O=C(Nc1cccc(-c2nn3ncccc3c2-c2ccnc(Nc3ccccc3)n2)c1)c1c(F)cccc1F [GSK198271] | LKB1 | 3 |
| Cn1cc(-c2ccc3c(c2)CCN3C(=O)Cc2cccc(F)c2)c2c(N)ncnc21 [GSK2603358] | LKB1 | 0 |
| Cc1ccc(S(=O)(=O)Nc2ccc(Nc3nccc(Nc4cccc5[nH]ncc45)n3)cc2)cc1 [GSK581271] | LKB1 | 0 |
| COc1cc(Nc2nccc(N3CCC(NC(=O)c4cc5ccccc5s4)C3)n2)cc(OC)c1OC (centres unmarked) [GSK1379760] | LKB1 | 14 |
| COc1cccc(C2=C(Nc3ccc(Cl)c(C(=O)O)c3)C(=O)NC2=O)c1 [SB-390769] | LKB1 | 0 |
| COc1cc(Nc2ncc3c(C)nc(-c4cc5ccccc5[nH]4)n3n2)cc(OC)c1OC [GW869516] | LKB1 | 0 |
| COc1cc(Nc2nccc(-c3c(-c4cccc(NC(=O)c5c(F)cccc5F)c4)nn4ncccc34)n2)cc(OC)c1OC [GSK327238] | LKB1 | 0 |
| CSc1cccc2c(-c3ccncn3)c(-c3ccc(F)cc3)nn12 [GW514786] | LKB1 | 0 |
